target_or_system: translation of nanoluciferase mRNA in rabbit reticulocyte lysates
method: Nanoluciferase mRNA translation in rabbit reticulocyte lysate, inhibitor preincubated 5 min before mRNA
Type: biochemical
run_parameters: 50% RRL, 5-min preincubation at 30 °C before nanoluciferase mRNA; maximal rate vs concentration; n = 3, mean ± SEM; read-out: IC50 of translation inhibition
Ends that are not written are not given here.
recorded_endpoint: pIC50
Friendly reminder that pIC50 comes from taking -log10 of the concentration in mol/L.

The reported value for PRPRPRPRPRPRPRPRPRPRPRPRPRPRPRPRPRPRPRPR [PR20] in terms of pIC50 is 6.08
